target: PIK3CD (Human) (UniProt O00329); test: Assessment of Elastase Exocytosis From Neutrophils
Sequence (O00329 whole entry, looked up): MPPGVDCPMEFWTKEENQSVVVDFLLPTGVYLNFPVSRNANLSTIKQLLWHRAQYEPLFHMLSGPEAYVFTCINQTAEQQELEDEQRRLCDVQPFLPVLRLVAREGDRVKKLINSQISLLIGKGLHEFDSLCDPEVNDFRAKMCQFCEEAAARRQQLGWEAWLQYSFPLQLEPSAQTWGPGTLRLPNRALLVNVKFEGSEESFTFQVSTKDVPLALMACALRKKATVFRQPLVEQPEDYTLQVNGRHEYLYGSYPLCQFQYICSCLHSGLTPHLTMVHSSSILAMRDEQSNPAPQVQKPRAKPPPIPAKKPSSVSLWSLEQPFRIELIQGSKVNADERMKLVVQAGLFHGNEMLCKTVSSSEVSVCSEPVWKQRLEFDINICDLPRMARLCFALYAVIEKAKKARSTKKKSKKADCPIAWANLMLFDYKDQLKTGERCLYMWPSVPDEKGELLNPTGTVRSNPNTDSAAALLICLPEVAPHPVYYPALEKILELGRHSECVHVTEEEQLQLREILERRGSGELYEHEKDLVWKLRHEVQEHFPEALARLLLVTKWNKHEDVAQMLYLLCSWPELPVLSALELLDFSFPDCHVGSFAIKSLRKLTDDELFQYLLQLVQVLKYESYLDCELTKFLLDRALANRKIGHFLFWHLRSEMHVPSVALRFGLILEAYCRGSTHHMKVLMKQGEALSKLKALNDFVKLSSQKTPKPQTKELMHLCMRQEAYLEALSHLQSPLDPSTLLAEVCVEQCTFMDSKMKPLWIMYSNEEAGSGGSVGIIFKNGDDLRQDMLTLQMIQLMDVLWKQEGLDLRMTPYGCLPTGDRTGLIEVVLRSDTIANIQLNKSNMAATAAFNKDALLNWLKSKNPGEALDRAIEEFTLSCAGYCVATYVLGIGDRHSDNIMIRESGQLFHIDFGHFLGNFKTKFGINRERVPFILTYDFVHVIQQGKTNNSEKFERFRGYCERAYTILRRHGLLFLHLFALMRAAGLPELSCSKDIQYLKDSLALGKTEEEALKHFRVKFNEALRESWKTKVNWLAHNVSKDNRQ
parameter: EC50 (nM)

CC[C@H](Nc1ncnc2[nH]cnc12)c1nc2cccc(Cl)c2c(=O)n1-c1cc(F)cc(F)c1: 382

[a] CCC(Nc1ncnc2[nH]cnc12)c1nc2cccc(Cl)c2c(=O)n1-c1c(F)cccc1F (centres undefined)
[b] CCC(Nc1ncnc2[nH]cnc12)c1nc2cccc(C)c2c(=O)n1-c1cc(F)cc(F)c1 (centres undefined)
[c] CCC(Nc1ncnc2[nH]cnc12)c1nc2ccccc2c(=O)n1-c1ccccc1 (centres undefined)
// query Order each entry by recorded EC50, climbing from the minimum. Rank the items, then write their labels in that order.
// result c, a, b
(c: 84 nM, a: 298 nM, b: 584 nM)

====

target: PIK3CD (Human) (UniProt O00329); test: Assessment of Human B Lymphocyte Function; details: b cells
pEC50: −log10 of the molar value.
parameter: pEC50

CC[C@H](Nc1ncnc2[nH]cnc12)c1nc2cccc(Cl)c2c(=O)n1-c1cc(F)cc(F)c1: 8.80

[a] CCC(Nc1ncnc2[nH]cnc12)c1nc2cccc(Cl)c2c(=O)n1-c1c(F)cccc1F (stereo not drawn)
[b] CCC(Nc1ncnc2[nH]cnc12)c1nc2ccccc2c(=O)n1-c1ccccc1 (stereo not drawn)
// query Decide: a or b , by lowest recorded pEC50. Label of pick, please.
// result a

====

Let's go through some IC50 measurements on PIK3CG (human) (UniProt P48736) together.
Sequence (P48736 whole entry, looked up): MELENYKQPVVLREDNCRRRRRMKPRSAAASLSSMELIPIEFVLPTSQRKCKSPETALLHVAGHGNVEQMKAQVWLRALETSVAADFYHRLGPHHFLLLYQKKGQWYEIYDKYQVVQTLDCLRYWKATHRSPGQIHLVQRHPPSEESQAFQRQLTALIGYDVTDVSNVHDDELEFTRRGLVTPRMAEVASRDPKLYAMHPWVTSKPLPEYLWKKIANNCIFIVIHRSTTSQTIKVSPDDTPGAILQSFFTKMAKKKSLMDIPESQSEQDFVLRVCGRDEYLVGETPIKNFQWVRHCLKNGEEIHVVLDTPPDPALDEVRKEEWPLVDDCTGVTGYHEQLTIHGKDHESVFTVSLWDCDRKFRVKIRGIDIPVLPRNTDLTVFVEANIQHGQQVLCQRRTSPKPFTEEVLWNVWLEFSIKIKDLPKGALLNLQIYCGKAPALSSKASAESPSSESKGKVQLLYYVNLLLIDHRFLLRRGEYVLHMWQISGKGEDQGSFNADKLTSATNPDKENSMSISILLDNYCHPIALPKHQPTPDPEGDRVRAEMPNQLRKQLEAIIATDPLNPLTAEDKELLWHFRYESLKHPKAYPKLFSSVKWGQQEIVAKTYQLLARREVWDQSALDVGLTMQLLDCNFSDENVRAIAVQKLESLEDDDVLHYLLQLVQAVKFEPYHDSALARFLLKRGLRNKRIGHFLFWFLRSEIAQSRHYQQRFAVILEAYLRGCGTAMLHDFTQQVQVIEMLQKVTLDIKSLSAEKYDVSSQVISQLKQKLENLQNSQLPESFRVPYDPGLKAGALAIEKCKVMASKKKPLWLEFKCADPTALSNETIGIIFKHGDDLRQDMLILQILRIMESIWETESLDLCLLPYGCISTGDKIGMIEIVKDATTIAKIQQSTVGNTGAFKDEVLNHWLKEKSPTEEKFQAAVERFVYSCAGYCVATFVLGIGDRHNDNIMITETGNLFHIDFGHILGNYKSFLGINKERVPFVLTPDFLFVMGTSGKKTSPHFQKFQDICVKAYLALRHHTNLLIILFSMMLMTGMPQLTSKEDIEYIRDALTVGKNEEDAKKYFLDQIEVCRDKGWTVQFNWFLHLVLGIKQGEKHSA
parameter: IC50 (µM)

CC[C@H](Nc1ncnc2[nH]cnc12)c1nc2cccc(Cl)c2c(=O)n1-c1cc(F)cc(F)c1: 0.804

[A] CCC(Nc1ncnc2[nH]cnc12)c1nc2ccccc2c(=O)n1-c1ccccc1 (stereo not drawn)
[B] CCC(Nc1ncnc2[nH]cnc12)c1nc2cccc(Cl)c2c(=O)n1-c1c(F)cccc1F (stereo not drawn)
// query So which one has the bigger IC50 here, A or B ? Label of pick, please.
// result B

====

target: PIK3CA (human)
Entries annotated with measured IC50
Unit µM implied. Number only.

CCC(Nc1ncnc2[nH]cnc12)c1nc2cccc(C)c2c(=O)n1-c1cc(F)cc(F)c1 (configuration not stated): 18.7

Pending molecule:
// query Item CC[C@H](Nc1ncnc2[nH]cnc12)c1nc2cccc(Cl)c2c(=O)n1-c1cc(F)cc(F)c1 with PIK3CA (human) - IC50?
// result 7.94

====

molecular target: PIK3CB (Human); assay: Inhibition of PIK3CB Kinase Activity
pIC50: −log10 of the molar value.
parameter: pIC50

CCC(Nc1ncnc2[nH]cnc12)c1nc2cccc(C)c2c(=O)n1-c1cc(F)cc(F)c1 (centres undefined): 5.61
CC[C@H](Nc1ncnc2[nH]cnc12)c1nc2cccc(Cl)c2c(=O)n1-c1cc(F)cc(F)c1: 6.03

[I] CCC(Nc1ncnc2[nH]cnc12)c1nc2ccccc2c(=O)n1-c1ccccc1 (centres undefined)
[II] CCC(Nc1ncnc2[nH]cnc12)c1nc2cccc(Cl)c2c(=O)n1-c1c(F)cccc1F (centres undefined)
// query Decide: I or II , by lowest recorded pIC50. Label of pick, please.
// result II
(II: 5.49, I: 5.93)
